biological target: full-length hepatitis C viral protein NS3•4A (Hepatitis C virus genotype 1a); construct: hexa-histidine (N); made in house; host or cells: Sf9 insect cells (baculovirus, pVL1392); experiment: biochemical; set-up: species or system HCV sub-type strain 1a; settings: Enzyme Assay 2 (HCV NS3 Peptide Cleavage Assay) activity, apparent Ki class
Listed next: entries and their corresponding Ki.

[[record]]
compound = "COc1cc(OC)c(C2=NO[C@]3(C2)C[C@@H](C(=O)N[C@@H](CC2CC2)C(=O)C(N)=O)N(C(=O)[C@@H](NC(=O)OC(C)(C)C)C(C)(C)C)C3)cc1Cl"
meas_value = "< 100 nM"


## Input Give a short answer stating reported Ki for CNC(=O)C(=O)[C@H](CC1CC1)NC(=O)[C@@H]1C[C@]2(CC(c3cc(Cl)c(OC)cc3OC)=NO2)CN1C(=O)[C@@H](NC(=O)OC1CCCC1)C(C)(C)C .
## Output < 100 nM

## Input Recall and state the measured Ki for CCC[C@H](NC(=O)[C@@H]1C[C@@]2(CC(c3cccc4cccnc34)=NO2)CN1C(=O)[C@@H](NC(=O)CC1CCCCC1)C(C)(C)C)C(=O)C(=O)NC1CC1 .
## Output 100 to 500 nM

## Input Give the value of Ki reported for the following: CCC[C@H](NC(=O)[C@@H]1C[C@]2(CC(c3ccc(F)c(Cl)c3)=NO2)CN1C(=O)[C@@H](NC(=O)CC(C)(C)C)C(C)(C)C)C(=O)C(=O)NC
## Output < 100 nM

## Input Find the measured Ki of CNC(=O)C(=O)[C@H](CC1CC1)NC(=O)[C@@H]1C[C@]2(CC(c3cccc(Cl)c3)=NO2)CN1C(=O)[C@@H](NC(=O)C1C[C@@H]1c1ccccc1)C(C)(C)C (some centres unmarked) and report it.
## Output < 100 nM
